Just for reference, ChEMBL document CHEMBL1139341 is where these values come from.

Subject Of Test: UniProt P35346
Sequence (P35346 whole entry): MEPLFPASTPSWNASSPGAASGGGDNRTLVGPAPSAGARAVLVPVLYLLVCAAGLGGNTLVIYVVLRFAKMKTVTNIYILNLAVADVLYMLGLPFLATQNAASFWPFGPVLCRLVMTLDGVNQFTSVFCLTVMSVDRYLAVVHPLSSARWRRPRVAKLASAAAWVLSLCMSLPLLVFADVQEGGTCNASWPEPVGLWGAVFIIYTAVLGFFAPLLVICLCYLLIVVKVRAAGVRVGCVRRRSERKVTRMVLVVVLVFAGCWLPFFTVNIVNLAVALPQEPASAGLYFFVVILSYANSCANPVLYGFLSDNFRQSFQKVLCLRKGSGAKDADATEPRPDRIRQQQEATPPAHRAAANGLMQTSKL
Experiment: Displacement of [125I]-[Leu8, DTrp22, Tyr25]-somatostatin-28 from human recombinant sst5 receptor expressed in chinese hamster CCL39 cells
Parameter: IC50 (nM)
Answers are plain numbers, in nM.

Example cases with answers are listed next.
Structure Smiles: NCCCC[C@@H](C(=O)NCc1ccccc1)N1Cc2[nH]c3ccccc3c2C[C@@H](NC(=O)CCc2ccccc2)C1=O
Readout Number: 3.4

Structure Smiles: COC(=O)[C@H](CCCCN)N1Cc2[nH]c3ccccc3c2C[C@@H](NC(=O)Cc2ccccc2)C1=O
Readout Number: 13

Structure Smiles: NCCCC[C@@H](C(=O)NCc1ccccc1)N1Cc2[nH]c3ccccc3c2C[C@@H](NC(=O)c2ccccc2)C1=O
Readout Number: 1.8

Structure Smiles: NCCCC[C@@H](C(=O)NCc1ccccc1)N1Cc2[nH]c3ccccc3c2C[C@@H](NC(=O)c2ccc(Cl)cc2)C1=O
Readout Number: 3.7

Structure Smiles: C[C@H](N)COC(=O)[C@@H](CCCCN)NC(=O)Cc1c(-c2ccc3ccccc3c2)[nH]c2c1ccc1ccccc12
Readout Number: 0.4

Structure Smiles: NCCCC[C@@H](C(=O)NCc1ccccc1)N1Cc2[nH]c3ccccc3c2C[C@@H](NC(=O)c2ccc(-c3ccccc3)cc2)C1=O
Readout Number: 16

Here is another compound to look at.
Form field: reported IC50 of CS(=O)(=O)N1CC2(CCN(C(=O)N[C@@H]3Cc4c([nH]c5ccccc45)CN([C@@H](CCCCN)C(=O)NCc4ccccc4)C3=O)CC2)c2ccccc21
8
